Reference for the values: PubChem BioAssay AID2060507

Test system: 519858-162-T-J1-PDC complex spheroid viability
test: Anticancer human tumor 519858-162-T-J1-PDC patient-derived colon adenocarcinoma cell line growth inhibition [GQUAD]
measurement_context: second compound 1 µM; first compound 3.16 µM; hits give low values
Param label: returns T when viability, T/C < 50%, returns F otherwise, including exact equality.

[
  {
    "compound": "C=CC(=O)N1CCN(c2nc(=O)n(-c3c(C)ccnc3C(C)C)c3nc(-c4c(O)cccc4F)c(F)cc23)C(C)C1 (stereo not drawn) + Cc1[nH]c2ccc(F)cc2c1-c1nc2c3cccnc3c3ncccc3c2[nH]1",
    "label_class": "F"
  },
  {
    "compound": "CC(C)n1c(=O)n(C)c2cnc3cc(F)c(-c4ccc(OCCCN5CCCCC5)nc4)cc3c21 + Cc1cnc(CNC(=O)c2c(=O)c3ccc(N4CCCN(C)CC4)nc3n3c2sc2ccccc23)cn1",
    "label_class": "T"
  },
  {
    "compound": "COc1cccc2c1C(=O)c1c(O)c3c(c(O)c1C2=O)CC(O)(C(=O)CO)CC3OC1CC(N)C(O)C(C)O1 (stereo not drawn) + Cc1[nH]c2ccc(F)cc2c1-c1nc2c3cccnc3c3ncccc3c2[nH]1",
    "label_class": "F"
  },
  {
    "compound": "C#Cc1c(F)ccc2cc(O)cc(-c3ncc4c(N5CC6CCC(C5)N6)nc(OCC56CCCN5CC(F)C6)nc4c3F)c12 (stereo not drawn) + Cc1[nH]c2ccc(F)cc2c1-c1nc2c3cccnc3c3ncccc3c2[nH]1",
    "label_class": "F"
  },
  {
    "compound": "CC1COCCN1c1cc(C2(S(C)(=N)=O)CC2)nc(-c2ccnc3[nH]ccc23)n1 (stereo not drawn) + CN(C)c1ccc(Nc2c3ccc(NC(=O)CCN4CCCC4)cc3nc3cc(NC(=O)CCN4CCCC4)ccc23)cc1",
    "label_class": "F"
  },
  {
    "compound": "C=CC(=O)N1CCN(c2nc(=O)n(-c3c(C)ccnc3C(C)C)c3nc(-c4c(O)cccc4F)c(F)cc23)C(C)C1 (stereo not drawn) + Cc1cnc(CNC(=O)c2c(=O)c3ccc(N4CCCN(C)CC4)nc3n3c2sc2ccccc23)cn1",
    "label_class": "T"
  },
  {
    "compound": "O=C(NO)c1cnc(N2CCN(S(=O)(=O)c3ccc4ccccc4c3)CC2)nc1 + Cc1cnc(CNC(=O)c2c(=O)c3ccc(N4CCCN(C)CC4)nc3n3c2sc2ccccc23)cn1",
    "label_class": "T"
  },
  {
    "compound": "CC1COCCN1c1cc(C2(O)CC3CCC(C2)O3)c2cnn(-c3ccn[nH]3)c2n1 (stereo not drawn) + CN(C)c1ccc(Nc2c3ccc(NC(=O)CCN4CCCC4)cc3nc3cc(NC(=O)CCN4CCCC4)ccc23)cc1",
    "label_class": "F"
  },
  {
    "compound": "O=c1[nH]cc(F)c(=O)[nH]1 + Cc1[nH]c2ccc(F)cc2c1-c1nc2c3cccnc3c3ncccc3c2[nH]1",
    "label_class": "F"
  },
  {
    "compound": "O=C(c1cc(Cc2n[nH]c(=O)c3ccccc23)ccc1F)N1CCN(C(=O)C2CC2)CC1 + Cc1cnc(CNC(=O)c2c(=O)c3ccc(N4CCCN(C)CC4)nc3n3c2sc2ccccc23)cn1",
    "label_class": "T"
  },
  {
    "compound": "C=CC(=O)N1CCN(c2nc(=O)n(-c3c(C)ccnc3C(C)C)c3nc(-c4c(O)cccc4F)c(F)cc23)C(C)C1 (stereo not drawn) + CN(C)c1ccc(Nc2c3ccc(NC(=O)CCN4CCCC4)cc3nc3cc(NC(=O)CCN4CCCC4)ccc23)cc1",
    "label_class": "F"
  }
]

###

Listed here: items and their measured viability, T/C.
System: 519858-162-T-J1-PDC complex spheroid viability
test: Anticancer human tumor 519858-162-T-J1-PDC cell line growth inhibition [GQUAD];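 also: spheroids exposed to compounds for 7 days; 100% = DMSO vehicle control viability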
measurement_context: second compound 3.16 µM; first compound 3.16 µM; hits give low values
Description: DNA G-quadruplex Stabilizer Agents in Combinations in Complex Spheroids A high-throughput screen of multi-cell type tumor spheroids was designed to identify active combinations of DNA G-quadruplex stabilizer agents and targeted small molecules. […] Compounds. […] If the clinical Cmax for an agent had not been determined, the highest concentration tested was 10 microM. […]

[
  {
    "compound": "O=c1[nH]cc(F)c(=O)[nH]1 + Cc1[nH]c2ccc(F)cc2c1-c1nc2c3cccnc3c3ncccc3c2[nH]1",
    "viability, T/C": "71.3%"
  },
  {
    "compound": "CC(C)(O)C1CCC(Nc2ccc3ncc(-c4cccc(C(F)(F)F)c4)n3n2)CC1 (centres undefined) + Cc1[nH]c2ccc(F)cc2c1-c1nc2c3cccnc3c3ncccc3c2[nH]1",
    "viability, T/C": "2.95%"
  },
  {
    "compound": "CC1COCCN1c1cc(C2(O)CC3CCC(C2)O3)c2cnn(-c3ccn[nH]3)c2n1 (centres undefined) + Cc1cnc(CNC(=O)c2c(=O)c3ccc(N4CCCN(C)CC4)nc3n3c2sc2ccccc23)cn1",
    "viability, T/C": "26.8%"
  },
  {
    "compound": "Nc1ccn(C2OC(CO)C(O)C2(F)F)c(=O)n1 (centres undefined) + Cc1[nH]c2ccc(F)cc2c1-c1nc2c3cccnc3c3ncccc3c2[nH]1",
    "viability, T/C": "95.4%"
  },
  {
    "compound": "O=C(NO)c1cnc(N2CCN(S(=O)(=O)c3ccc4ccccc4c3)CC2)nc1 + Cc1[nH]c2ccc(F)cc2c1-c1nc2c3cccnc3c3ncccc3c2[nH]1",
    "viability, T/C": "1.44%"
  },
  {
    "compound": "O=C(NO)c1cnc(N2CCN(S(=O)(=O)c3ccc4ccccc4c3)CC2)nc1 + Cc1cnc(CNC(=O)c2c(=O)c3ccc(N4CCCN(C)CC4)nc3n3c2sc2ccccc23)cn1",
    "viability, T/C": "3.32%"
  },
  {
    "compound": "C=CC(=O)N1CCN(c2nc(=O)n(-c3c(C)ccnc3C(C)C)c3nc(-c4c(O)cccc4F)c(F)cc23)C(C)C1 (centres undefined) + Cc1[nH]c2ccc(F)cc2c1-c1nc2c3cccnc3c3ncccc3c2[nH]1",
    "viability, T/C": "72.1%"
  },
  {
    "compound": "C#Cc1c(F)ccc2cc(O)cc(-c3ncc4c(N5CC6CCC(C5)N6)nc(OCC56CCCN5CC(F)C6)nc4c3F)c12 (centres undefined) + CN(C)c1ccc(Nc2c3ccc(NC(=O)CCN4CCCC4)cc3nc3cc(NC(=O)CCN4CCCC4)ccc23)cc1",
    "viability, T/C": "72.9%"
  },
  {
    "compound": "Cc1cccc(N(C)C(=O)C2C(O)CCN2c2nc(C)cc(C(F)(F)F)c2C#N)c1 (centres undefined) + CN(C)c1ccc(Nc2c3ccc(NC(=O)CCN4CCCC4)cc3nc3cc(NC(=O)CCN4CCCC4)ccc23)cc1",
    "viability, T/C": "78.5%"
  }
]

###

System: 519858-162-T-J1-PDC complex spheroid viability
test: Anticancer human tumor 519858-162-T-J1-PDC cell line growth inhibition [GQUAD];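 also: spheroids exposed to compounds for 7 days; 100% = DMSO vehicle control viability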
measurement_context: second compound 0.0316 µM; first compound 3.16 µM; hits give low values
Catalogue of molecules with associated viability, T/C

[
  {
    "molecule": "O=C(NO)c1cnc(N2CCN(S(=O)(=O)c3ccc4ccccc4c3)CC2)nc1 + Cc1cnc(CNC(=O)c2c(=O)c3ccc(N4CCCN(C)CC4)nc3n3c2sc2ccccc23)cn1",
    "viability, T/C, %": 0.34
  },
  {
    "molecule": "C=CC(=O)N1CCN(c2nc(=O)n(-c3c(C)ccnc3C(C)C)c3nc(-c4c(O)cccc4F)c(F)cc23)C(C)C1 (stereo not drawn) + Cc1cnc(CNC(=O)c2c(=O)c3ccc(N4CCCN(C)CC4)nc3n3c2sc2ccccc23)cn1",
    "viability, T/C, %": 46.3
  },
  {
    "molecule": "Cc1cccc(N(C)C(=O)C2C(O)CCN2c2nc(C)cc(C(F)(F)F)c2C#N)c1 (stereo not drawn) + Cc1cnc(CNC(=O)c2c(=O)c3ccc(N4CCCN(C)CC4)nc3n3c2sc2ccccc23)cn1",
    "viability, T/C, %": 70.7
  }
]
